# tested_system: trypsin
# experiment_summary: monoclonal phage TRF ELISA
Readings of trypsin binding signal (FU) for the listed binders

binder	trypsin binding signal (FU)
KB_B10 (scFv, V domains shown) VH: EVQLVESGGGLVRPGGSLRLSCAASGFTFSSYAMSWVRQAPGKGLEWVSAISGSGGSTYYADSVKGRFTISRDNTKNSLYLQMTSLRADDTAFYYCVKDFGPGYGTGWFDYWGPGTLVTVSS VL: QSVLTQLPSVSEAPRQRVTITCGRAMCPRILMRCKQDSDCLAGCVCGPNGFCGTGNWYQQHPGKAPKLIIFDVSKRPSGVPDRFSASKSGNTASLTISGLQAEDEADYYCNSYTSSNTWVFGGGTQLTVLG	9270
KB_A02 (scFv, V domains shown) VH: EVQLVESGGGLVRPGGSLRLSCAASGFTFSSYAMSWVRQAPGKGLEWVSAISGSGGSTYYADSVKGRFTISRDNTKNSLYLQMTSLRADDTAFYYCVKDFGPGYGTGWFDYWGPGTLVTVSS VL: AVNWYQQLPGKAPKLLIYAAAKCPRILMRCKQDSDCLAGCVCGPNGFCGGASGVSDRFSGSIDSSSNSASLTISGLKPEDEGDYYCQSYDSSNRWVFGGGTKVTVLG	183000
KB_A11 (scFv, V domains shown) VH: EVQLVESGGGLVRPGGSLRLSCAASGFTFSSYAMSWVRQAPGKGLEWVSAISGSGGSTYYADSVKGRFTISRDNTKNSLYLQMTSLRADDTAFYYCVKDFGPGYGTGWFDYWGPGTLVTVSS VL: YLNWYQQKPGKAPKLLIYAAEICPRILMRCKQDSDCLAGCVCGPNGFCGPSSGIPARFSGSGYGTDFTLTINNIESEDAAYYFCLQHDNFPYTFGQGTKVEIKR	16400
KB_A10 (scFv, V domains shown) VH: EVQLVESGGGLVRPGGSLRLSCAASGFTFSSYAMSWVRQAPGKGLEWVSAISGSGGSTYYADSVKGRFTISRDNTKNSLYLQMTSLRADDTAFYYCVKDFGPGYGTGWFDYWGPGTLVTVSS VL: AVNWYQQLPGKAPKLLIYAAGGCPRILMRCKQDSDCLAGCVCGPNGFCGSNSGVPDRFSGSKSGNTASLTISGLQSEDEADYYCAAWDDSLSGVVFGGGTQLTVLG	38800
KB_B01 (scFv, V domains shown) VH: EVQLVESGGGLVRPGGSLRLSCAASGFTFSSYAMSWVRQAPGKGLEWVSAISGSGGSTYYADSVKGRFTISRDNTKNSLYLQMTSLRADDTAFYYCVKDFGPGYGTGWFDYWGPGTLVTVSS VL: AVNWYQQLPGKAPKLLIYAAAGCPRILMRCKQDSDCLAGCVCGPNGFCGTRSGVSDRFSGSKSGTSASLAISGLRSEDEADYYCAAWDDSLRAYVFGTGTKLTVLG	57700
